- assay.summary: in vitro
- experimental.setup: human, hela cells, % viability
property.label: viability at 28.5 h, 10 µM (%)

[[record]]
compound = "Cc1nnc(SCC(=O)N/N=C/c2ccc(-c3ccc(Br)cc3)o2)n1-c1ccccc1 [CBK262769]"
unit_abbreviation = "%"
observed_value = 104

[[record]]
compound = "NS(=O)(=O)c1ccc(CCNC(=O)c2cc(Br)cnc2N2CCOCC2)cc1 [CBK076225]"
unit_abbreviation = "%"
observed_value = 85.1

[[record]]
compound = "Cc1cc(COc2nccnc2N2CCN(CC(N)=O)CC2)no1 [CBK084192]"
unit_abbreviation = "%"
observed_value = 91

[[record]]
compound = "CC(=O)OC(C(=O)O)C(OC(C)=O)c1nc2ccccc2s1 (centres unmarked) [CBK264076]"
unit_abbreviation = "%"
observed_value = 99.3

[[record]]
compound = "Oc1nnc(-c2ccc(Cl)c(Cl)c2)n1C1CCCCC1 [CBK074888]"
unit_abbreviation = "%"
observed_value = 97.9

[[record]]
compound = "CC(=O)N1C[C@H]2CCCN(S(=O)(=O)c3cccs3)[C@H]2C1 [CBK285275]"
unit_abbreviation = "%"
observed_value = 84.3

[[record]]
compound = "O=C(COc1ccc(-c2ccccc2)cc1)N1CCN(S(=O)(=O)c2ccccc2[N+](=O)[O-])CC1 [CBK264154]"
unit_abbreviation = "%"
observed_value = 93

[[record]]
compound = "CC(C)(C)C(=O)NCCn1c(=O)oc2ccccc21 [CBK282885]"
unit_abbreviation = "%"
observed_value = 96.4

[[record]]
compound = "CC(C)n1cnc2ccc(-c3noc(-c4nccc5ccccc45)n3)cc21 [CBK288617]"
unit_abbreviation = "%"
observed_value = 109

[[record]]
compound = "C[C@]12CN(C(=O)C3CCCC3)C[C@H]1NC(=O)c1ccccc1C2=O [CBK281672]"
unit_abbreviation = "%"
observed_value = 95.4

[[record]]
compound = "CCCCc1ccc(-c2cnc(N)c3ncccc23)cc1 [CBK067588]"
unit_abbreviation = "%"
observed_value = 75.7

[[record]]
compound = "COc1ccc(CNC(=O)c2nc(-c3ccccn3)no2)cc1 [CBK287877]"
unit_abbreviation = "%"
observed_value = 90.3

[[record]]
compound = "CCOc1ccc(CNc2ccc(C3c4ccsc4CCN3C(=O)COC)cc2)cc1 (centres unmarked) [CBK286453]"
unit_abbreviation = "%"
observed_value = 85.3

[[record]]
compound = "CC(=O)N(C)c1ccc(NC(=O)c2ccccc2C(=O)O)cc1 [CBK270693]"
unit_abbreviation = "%"
observed_value = 97.9

[[record]]
compound = "COc1ccc(CCNC(=O)CSC(C)C(=O)O)cc1 (centres unmarked) [CBK297493]"
unit_abbreviation = "%"
observed_value = 81.4

[[record]]
compound = "O=C(NCc1ccc(F)cc1)c1cc(Br)cnc1N1CCOCC1 [CBK076246]"
unit_abbreviation = "%"
observed_value = 89.1

[[record]]
compound = "CC1CC1C(=O)NCC(=O)N1CCN(S(=O)(=O)c2ccccc2[N+](=O)[O-])CC1 (centres unmarked) [CBK296747]"
unit_abbreviation = "%"
observed_value = 90.4

[[record]]
compound = "CCCn1c(=N)n(CCOc2cccc(C)c2)c2ccccc21 [CBK264746B]"
unit_abbreviation = "%"
observed_value = 89.2

[[record]]
compound = "CCC(=O)Nc1nc2ccccc2n1CCCN(C)C [CBK263492]"
unit_abbreviation = "%"
observed_value = 102

[[record]]
compound = "COc1cc(-c2nnc(NC(C)=O)o2)cc(OC)c1OC [CBK287698]"
unit_abbreviation = "%"
observed_value = 95.2

[[record]]
compound = "O=C(CN1CCOCC1)N1CCN(C(=O)c2ccc(Cl)cc2Cl)CC1 [CBK028992]"
unit_abbreviation = "%"
observed_value = 97.7

[[record]]
compound = "FC(F)C(F)(F)Oc1cccc(Nc2nccn3ccnc23)c1 [CBK066284]"
unit_abbreviation = "%"
observed_value = 91.6

[[record]]
compound = "CC(C)Nc1nc2cc(Cl)c(Cl)cc2nc1OCCCN(C)C [CBK115282]"
unit_abbreviation = "%"
observed_value = 93.1

[[record]]
compound = "Cc1ccc(NC(=O)C(=O)NCCCN2CCOCC2)cc1C [CBK264836]"
unit_abbreviation = "%"
observed_value = 106

[[record]]
compound = "COc1ccc(C(=O)N2CCC3(CCCN(C(=O)CN4C(=O)CSC4=O)C3)C2)cc1OC (centres unmarked) [CBK137088]"
unit_abbreviation = "%"
observed_value = 115

[[record]]
compound = "CN(C)C(=O)c1ccc(-c2ccc3c(c2)COC(C2CCN(C(=O)Cc4ccc(C#N)cc4)CC2)O3)cc1 (centres unmarked) [CBK149760]"
unit_abbreviation = "%"
observed_value = 107

[[record]]
compound = "O=c1oc2ccccc2c(O)c1Cc1c(O)c2ccccc2oc1=O [CBK016703G]"
unit_abbreviation = "%"
observed_value = 74

[[record]]
compound = "CC(=O)N1CCN(c2ccc(NC(=O)CSc3ccc(C)cc3)cc2)CC1 [CBK269854]"
unit_abbreviation = "%"
observed_value = 95.6

[[record]]
compound = "CCn1c(SCc2nc(-c3cccs3)no2)nnc1-c1c[nH]c2ccccc12 [CBK268607]"
unit_abbreviation = "%"
observed_value = 104

[[record]]
compound = "CN1CCC(N2CCN(C(=O)c3cnc(-c4ccccn4)nc3C(F)(F)F)CC2)CC1 [CBK149089]"
unit_abbreviation = "%"
observed_value = 107

[[record]]
compound = "CC(=O)N1CCc2sccc2C1c1ccc(NC(=O)c2ccco2)cc1 (centres unmarked) [CBK286199]"
unit_abbreviation = "%"
observed_value = 102

[[record]]
compound = "CCc1nc2ccc(C(=O)Nc3ccc(NC(C)=O)cc3)cn2c1N(C)CC [CBK145483]"
unit_abbreviation = "%"
observed_value = 94.5

[[record]]
compound = "N#Cc1ccc(Sc2cccc(F)c2)c(F)c1 [CBK002909]"
unit_abbreviation = "%"
observed_value = 115

[[record]]
compound = "Cc1nn(CCC#N)c(C)c1[C@@H]1C=C[C@@H](NC(=O)Nc2ccccc2)C1 [CBK289173]"
unit_abbreviation = "%"
observed_value = 92.9

[[record]]
compound = "Cn1c(SCC(=O)Nc2ccc(N3CCOCC3)c(Cl)c2)nnc1-c1ccc(N)cc1 [CBK265777]"
unit_abbreviation = "%"
observed_value = 102

[[record]]
compound = "Fc1ccc(Sc2cccc(C(F)(F)F)n2)cc1 [CBK115240]"
unit_abbreviation = "%"
observed_value = 97.5

[[record]]
compound = "CC(=O)Nc1ccc(CNC(=O)c2cccnc2O)cc1 [CBK304559]"
unit_abbreviation = "%"
observed_value = 107

[[record]]
compound = "COC(=O)c1ccc(NC(=O)N(Cc2cnn(C)c2)CC(C)C)cc1Cl [CBK304387]"
unit_abbreviation = "%"
observed_value = 93.1


Hello, the source for this data is paper PMC12040169, in case you need it.
